target: 5-HT1AR (Rattus norvegicus); construct: from tissue; hippocampus per the main-text methods; experiment: [35S]GTPγS functional 5-HT1A assay in rat hippocampal membranes; format: biochemical; details: rat hippocampal membranes; basal 5-HT1AR activation set to 100%; read-out: 5-HT1A Emax (%) ± SEM
Sequence (P19327 whole entry): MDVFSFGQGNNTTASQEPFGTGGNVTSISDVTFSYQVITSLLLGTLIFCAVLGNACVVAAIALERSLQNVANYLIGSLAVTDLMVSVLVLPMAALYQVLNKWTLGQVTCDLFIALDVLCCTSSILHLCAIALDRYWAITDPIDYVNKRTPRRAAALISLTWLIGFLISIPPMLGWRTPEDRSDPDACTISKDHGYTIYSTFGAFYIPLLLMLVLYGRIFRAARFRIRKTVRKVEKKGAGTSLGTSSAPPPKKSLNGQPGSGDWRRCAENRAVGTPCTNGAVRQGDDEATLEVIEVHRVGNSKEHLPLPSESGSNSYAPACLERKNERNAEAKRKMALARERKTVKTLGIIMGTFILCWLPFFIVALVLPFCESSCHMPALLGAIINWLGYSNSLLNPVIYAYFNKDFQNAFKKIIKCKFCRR
OBSERVED PROPERTY: Emax (%)
Numbers only here, please. The scale is %.

Record excerpt, results attached:
MOLECULE	Emax [%]
NCCc1c[nH]c2ccc(O)cc12 [serotonin, reference compound]	192
c1ccc(C2(c3ccccc3)OCC(CNCCOc3ccccc3-c3ccncc3)O2)cc1 (racemic)	151
Cn1cncc1-c1ccccc1OCCNCC1COC(c2ccccc2)(c2ccccc2)O1 (racemic)	184
c1ccc(C2(c3ccccc3)OC[C@H](CNCCOc3ccccc3-c3ccncc3)O2)cc1 [(S)-1]	138

# returns recorded Emax (system: 5-HT1AR (Rattus norvegicus)) for Cn1cncc1-c1ccccc1OCCNC[C@@H]1COC(c2ccccc2)(c2ccccc2)O1 [(R)-2] 143

# returns recorded Emax (system: 5-HT1AR (Rattus norvegicus)) for Cn1cncc1-c1ccccc1OCCNC[C@H]1COC(c2ccccc2)(c2ccccc2)O1 [(S)-2] 175

# returns recorded Emax (system: 5-HT1AR (Rattus norvegicus)) for c1ccc(C2(c3ccccc3)OC[C@@H](CNCCOc3ccccc3-c3ccncc3)O2)cc1 [(R)-1] 158
